Source: patent US20260053834A1

Please go through the items and note down their IC50.
# Test system: LAPC4 prostate cancer cells, which express the AKT1 E17K allele
# PROTOCOL DESCRIPTION: Antiproliferative effects in LAPC4 cells (CellTiter Glo, 72 h)
# Type: cell-based
# MEASUREMENT CONTEXT: Homo sapiens, LAPC4, 72 h, read-out: LAPC4 proliferation IC50: GeoMean IC50

Example entries begin here.
{"columns": ["SMILES REPRESENTATION", "IC50"],
 "data": [
  ["Nc1ncccc1-c1nc2ccc(F)nc2n1-c1ccc2c(c1)CC[C@@H]2NC(=O)c1ccc(O)c(C=O)c1", "100 to 2000 nM"],
  ["Nc1ncccc1-c1nc2c(Cl)cc(-n3cccn3)nc2n1-c1ccc2c(c1)CC[C@@H]2NC(=O)c1cc(C=O)c(O)c(F)c1F", "10 to 100 nM"],
  ["Nc1ncc(F)cc1-c1nc2ccc(-n3cccn3)nc2n1-c1ccc2c(c1)CC[C@@H]2NC(=O)c1ccc(O)c(C=O)c1", "≥ 2000 nM"],
  ["Nc1ncccc1-c1nc2ccc(-n3cc(Cl)cn3)nc2n1-c1ccc2c(c1)CC[C@@H]2NC(=O)c1ccc(O)c(C=O)c1", "100 to 2000 nM"],
  ["Nc1ncccc1-c1nc2ccc(-n3nccn3)nc2n1-c1ccc2c(c1)CC[C@@H]2NC(=O)c1cc(C=O)c(O)c(F)c1F", "10 to 100 nM"]
]}

Value sought for every listed compound: IC50.
1. Nc1ncccc1-c1nc2cc(F)c(-n3cccn3)nc2n1-c1ccc2c(c1)CC[C@@H]2NC(=O)c1ccc(O)c(C=O)c1
2. Nc1ncccc1-c1nc2ccc(Br)nc2n1-c1ccc2c(c1)CC[C@@H]2NC(=O)c1ccc(O)c(C=O)c1

1. 100 to 2000 nM
2. 100 to 2000 nM
